Target: Man(a1-2)Man(a1-3)[Man(a1-2)Man(a1-6)]Man(a1-6)[Man(a1-2)Man(a1-2)Man(a1-3)]Man(b1-4)GlcNAc(b1-4)GlcNAc
Experiment: glycan array binding signal (z-score within array); higher = stronger binding
Conditions: glycan notation: IUPAC condensed, linker removed
The sample as a whole holds a higher share of the strongest signals than the screen did.
Classification field: enter Fulfilled for glycan array binding signal (z-score) values not below 3, Not fulfilled for values below it.

Please check the record Langerin CRD (Homo sapiens), Q9UJ71 (protein) QVVSQGWKYFKGNFYYFSLIPKTWYSAEQFCVSRNSHLTSVTSESEQEFLYKTAGGLIYWIGLTKAGMEGDWSWVDDTPFNKVQSVRFWIPGEPNNAGNNEHCGNIKAPSLQAWNDAPCDKTFLFICKRPYVPSEPSAWSHPQFEK and state if its glycan array binding signal (z-score) is at or above 3.
Not fulfilled

And what about the binder Microvirin-2 (Microcystis aeruginosa) (protein) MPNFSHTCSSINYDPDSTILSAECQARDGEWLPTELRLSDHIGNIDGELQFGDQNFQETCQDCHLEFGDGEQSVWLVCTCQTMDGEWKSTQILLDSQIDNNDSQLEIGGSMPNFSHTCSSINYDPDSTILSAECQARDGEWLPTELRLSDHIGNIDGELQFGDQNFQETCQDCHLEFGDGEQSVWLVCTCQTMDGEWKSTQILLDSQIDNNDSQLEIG ?
Fulfilled

Try Eosinophil cationic protein (ECP) (Homo sapiens), P12724 (protein) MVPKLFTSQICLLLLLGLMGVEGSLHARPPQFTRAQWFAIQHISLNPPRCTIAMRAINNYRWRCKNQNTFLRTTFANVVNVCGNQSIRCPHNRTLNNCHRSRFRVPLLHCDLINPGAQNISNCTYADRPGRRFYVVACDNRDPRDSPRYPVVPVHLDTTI next.
Not fulfilled

How about UDA (Urtica dioica), P11218 (protein) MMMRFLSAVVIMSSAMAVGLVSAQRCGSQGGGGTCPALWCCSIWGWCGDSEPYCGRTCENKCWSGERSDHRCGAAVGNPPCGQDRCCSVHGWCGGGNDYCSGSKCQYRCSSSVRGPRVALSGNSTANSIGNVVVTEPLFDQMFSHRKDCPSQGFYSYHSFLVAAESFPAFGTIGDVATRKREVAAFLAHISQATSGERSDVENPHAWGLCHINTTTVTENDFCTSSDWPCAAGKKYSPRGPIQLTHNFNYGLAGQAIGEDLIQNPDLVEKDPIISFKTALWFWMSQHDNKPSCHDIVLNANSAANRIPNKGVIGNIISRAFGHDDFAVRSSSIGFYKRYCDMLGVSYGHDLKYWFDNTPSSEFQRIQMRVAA ?
Fulfilled

Another binder to check: Banana lectin (Musa acuminata) (protein) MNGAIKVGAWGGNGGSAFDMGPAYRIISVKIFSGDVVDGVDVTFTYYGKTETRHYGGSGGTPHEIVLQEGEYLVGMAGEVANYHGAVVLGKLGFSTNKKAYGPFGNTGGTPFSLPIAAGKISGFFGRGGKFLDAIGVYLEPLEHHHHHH
Not fulfilled
